- Test system: RARg homodimer (NR concentration 270 nM)
- PROTOCOL_NOTES: PBM binding z-score (relative to random genomic background probes); higher = stronger binding; sequences stand for … in GC…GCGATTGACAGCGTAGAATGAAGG
Property: PBM binding z-score; scope: individual sequences
A bare number is all that is needed in reply.

Below, 4 sequences whose answers are already recorded.
- QUERY_SEQUENCE: "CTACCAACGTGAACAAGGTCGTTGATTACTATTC"
  ASSAYED_SYSTEM: "RARg homodimer (NR concentration 270 nM)"
  PBM binding z-score: 0.432
- QUERY_SEQUENCE: "ATCGAAAGGTCGACGATGTGAGTATACACCGTTT"
  ASSAYED_SYSTEM: "RARg homodimer (NR concentration 270 nM)"
  PBM binding z-score: 3.82
- QUERY_SEQUENCE: "TTTTGTAGATCAAGCAGGTTAAGAAAGCCTGAGT"
  ASSAYED_SYSTEM: "RARg homodimer (NR concentration 270 nM)"
  PBM binding z-score: -0.119
- QUERY_SEQUENCE: "CGTCAAAGTTTAAGGTAACGTAACAGAAAGCAGC"
  ASSAYED_SYSTEM: "RARg homodimer (NR concentration 270 nM)"
  PBM binding z-score: 1.7

Query: What does the record list as PBM binding z-score for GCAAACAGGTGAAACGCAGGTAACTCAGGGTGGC ?
Reply: 0.0633

Query: What does the record list as PBM binding z-score for ACTAGTTGGTCAGCTGAGGTCACTCACAATTCGG ?
Reply: 3.38

Query: What does the record list as PBM binding z-score for ATCTCTAGGTGAAGTTCAGTGAAAGATCGATAGA ?
Reply: 1.46

Query: What does the record list as PBM binding z-score for GCAGACAGGTGAAACGCAGGTAACTGAGGGTGGC ?
Reply: 0.142

Query: What does the record list as PBM binding z-score for TCTTGCAGATCAATAGAGGTTAAGAAAGTGCGCT ?
Reply: 0.305

Query: What does the record list as PBM binding z-score for TCTATTAGTTGATTAGAGCAACCGAAACAGCGGA ?
Reply: 0.245

Query: What does the record list as PBM binding z-score for ATAGGTAGGTTACATCCGGGTCATTCAGGCTATG ?
Reply: 2.45

Query: What does the record list as PBM binding z-score for ACTATTAGTTGACTTAGGGCAACCAATACGACGC ?
Reply: 0.945

Query: What does the record list as PBM binding z-score for TATACAGGGTCAAAGGCGAGAGTACGAATGTCGA ?
Reply: 5.04

Query: What does the record list as PBM binding z-score for CCAGACAGGTGAGAATGTAACTCAGCCTCGATTA ?
Reply: 0.342

----------
Property: PBM binding z-score; scope: individual sequences
- Tested on: PPARg DBDmut IVT, anti-PPARg (DBD mutation: PPARg1 K132A/R137A, NR concentration 270 nM)
- PROTOCOL_NOTES: PBM binding z-score (relative to random genomic background probes); higher = stronger binding; sequences stand for … in GC…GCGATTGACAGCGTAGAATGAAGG
A bare number is all that is needed in reply.

- QUERY_SEQUENCE: "CCAGACAGGTGAGAAGGTAACTCAACCTCGATTA"
  PBM binding z-score: -0.571

Query: What measured PBM binding z-score is associated with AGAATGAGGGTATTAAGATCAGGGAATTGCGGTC on PPARg DBDmut IVT, anti-PPARg (DBD mutation: PPARg1 K132A/R137A, NR concentration 270 nM)?
Reply: 0.824

Query: What measured PBM binding z-score is associated with CCTAGTGGGCCACGAAAGGTCATTGATTCAGTGA on PPARg DBDmut IVT, anti-PPARg (DBD mutation: PPARg1 K132A/R137A, NR concentration 270 nM)?
Reply: -0.293

----------
- Tested on: RARa homodimer (NR concentration 270 nM)
- PROTOCOL_NOTES: PBM binding z-score (relative to random genomic background probes); higher = stronger binding; sequences stand for … in GC…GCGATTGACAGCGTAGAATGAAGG
ATTRIBUTE_MEASURED: PBM binding z-score
A bare number is all that is needed in reply.

Below, 4 sequences whose answers are already recorded.
- QUERY_SEQUENCE: "TCTTGTAGATCAGCAGGTTAAGAATGCTGGCCAA"
  MEASUREMENT: -0.0617
- QUERY_SEQUENCE: "TAGCCTACGTCATTGGGCCAGTATAGTACGCATC"
  MEASUREMENT: -0.851
- QUERY_SEQUENCE: "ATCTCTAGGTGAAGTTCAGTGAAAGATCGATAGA"
  MEASUREMENT: 0.618
- QUERY_SEQUENCE: "TAGCCTAGGTCAGATAGGGCCAGTATACGCTATA"
  MEASUREMENT: -0.488

Query: What does the record list as PBM binding z-score for AGTCAACGTTCAGGACGAGGTAACGTAAAGCACG ?
Reply: -0.202

Query: What does the record list as PBM binding z-score for CCCAGTTGGTCAAGGTCACACACGCTATAGGTAC ?
Reply: 2.32

Query: What does the record list as PBM binding z-score for TTGCCAAGGTGAGCTGAGGTCGTTGATCCAACTC ?
Reply: -0.704

Query: What does the record list as PBM binding z-score for ACAATTAGTTGAGACGAGGGCAACCGATAGGTTG ?
Reply: 0.878

Query: What does the record list as PBM binding z-score for CAAACTAGGTCAAGATCAAAGTCGGTTTGTGCCA ?
Reply: 0.622

Query: What does the record list as PBM binding z-score for GCTGCTAGGTCAGGTTGGTCAGGTAACGGGTACG ?
Reply: -0.052

Query: What does the record list as PBM binding z-score for GCTACTAGGTCAACTGATGGTCAGCTAAAGCTCG ?
Reply: 0.12

Query: What does the record list as PBM binding z-score for CAAACTAGGTCACAGAGGTCTAAGTCCGTGCGTA ?
Reply: 0.421

Query: What does the record list as PBM binding z-score for CCTAGTTGGACAGGAGGTCACACACCGGATATGA ?
Reply: 1.71

Query: What does the record list as PBM binding z-score for TCATATAGCTAATACAGGTGAAAGTCGGCATCTA ?
Reply: 0.67

Query: What does the record list as PBM binding z-score for CCTACTGGGCCACGATAGGTCATTGATTCAGTGA ?
Reply: 0.152

Query: What does the record list as PBM binding z-score for TCGAGTACGTTAGTCGGGGCATTCAGCCAACATA ?
Reply: -0.667

Query: What does the record list as PBM binding z-score for CCTGCTAGGTCATGGTCTGCTAATCTACAGTATG ?
Reply: -0.00634

Query: What does the record list as PBM binding z-score for CGAACTAGGCCAAGGACAGTGAATCTCCGCACGC ?
Reply: -0.416

Query: What does the record list as PBM binding z-score for ACTATTAGTTCACTTAGGGCAACCGATACGACGC ?
Reply: 0.399

----------
Property: PBM binding z-score; scope: individual sequences
- Test system: PPARg:RXRa 270nM:90nM, anti-RXR (NR concentration 270 nM, RXRa partner concentration 90 nM)
- PROTOCOL_NOTES: PBM binding z-score (relative to random genomic background probes); higher = stronger binding; sequences stand for … in GC…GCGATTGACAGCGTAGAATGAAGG
A bare number is all that is needed in reply.

Below, 2 sequences whose answers are already recorded.
- QUERY_SEQUENCE: "TTAACAAGGTGAAGGTCGTTGATCCCTCTGTAGA"
  PBM binding z-score: 3.09
- QUERY_SEQUENCE: "AGAATGAGGTTACCAAAGATCAAGGAAACGCTTG"
  PBM binding z-score: 3.09

Switching to the query record.
Query: What does the record list as PBM binding z-score for CCTGCTAGGTCATGGTCATCTAATCTACAGTATG ?
Reply: 3.03

----------
- System: VDR homodimer (NR concentration 270 nM)
- PROTOCOL_NOTES: PBM binding z-score (relative to random genomic background probes); higher = stronger binding; sequences stand for … in GC…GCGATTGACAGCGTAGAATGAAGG
Mark False for PBM binding z-score values under 0.4, and True for everything at or above.

Solved cases below.
- QUERY_SEQUENCE: "TCTTGTAGATCAACAGGAGGTTAAGAAAGATCGA"
  ASSAYED_SYSTEM: "VDR homodimer (NR concentration 270 nM)"
  CLASS_LABEL: "False"
- QUERY_SEQUENCE: "CGTCCAAGGTCATAGGAGGTCAGGGAAGACAGAT"
  ASSAYED_SYSTEM: "VDR homodimer (NR concentration 270 nM)"
  CLASS_LABEL: "True"
- QUERY_SEQUENCE: "CCAGACAGGTGAGAAGGTAACTCCGCCTCGATTA"
  ASSAYED_SYSTEM: "VDR homodimer (NR concentration 270 nM)"
  CLASS_LABEL: "False"
- QUERY_SEQUENCE: "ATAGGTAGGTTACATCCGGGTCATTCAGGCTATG"
  ASSAYED_SYSTEM: "VDR homodimer (NR concentration 270 nM)"
  CLASS_LABEL: "True"
- QUERY_SEQUENCE: "CCTAGCAGGCCAGGGTCGCTCAAGCATTTCGCTT"
  ASSAYED_SYSTEM: "VDR homodimer (NR concentration 270 nM)"
  CLASS_LABEL: "False"
- QUERY_SEQUENCE: "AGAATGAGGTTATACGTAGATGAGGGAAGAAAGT"
  ASSAYED_SYSTEM: "VDR homodimer (NR concentration 270 nM)"
  CLASS_LABEL: "True"
- QUERY_SEQUENCE: "CTTCCAAGGTGAACAAGGTCGTTGATTACTATTC"
  ASSAYED_SYSTEM: "VDR homodimer (NR concentration 270 nM)"
  CLASS_LABEL: "True"
- QUERY_SEQUENCE: "TAGCCTATGTCATTGGGCCAGTATAGTACGCATC"
  ASSAYED_SYSTEM: "VDR homodimer (NR concentration 270 nM)"
  CLASS_LABEL: "False"

Now consider a different sequence.
Query: Quick check, PBM binding z-score >= 0.4? CACACTAGGTCAAGGTCAAAGTCGGTTTGTGCCA
Reply: True

The values you see were collected from the supplement of paper PMC6555819.
